Reported inhibition values for a set of molecules
- tested.on: Cyclin-dependent kinase 2/cyclin E1 (Homo sapiens) (UniProt P24864+P24941)
- experiment: Inhibition of CDK2/cyclinE (unknown origin) using histone-H1 and [gamma-33P]ATP at 10 uM by scintillation counting
- Format: protein-complex assay
Could you give me the number in %? Just the number is fine.

Consider the reported inhibition for these molecules:
molecule="CCOC(=O)N/N=C1\\CC(c2ccc(O)cc2)Oc2cc(O)cc(O)c21 (configuration not stated)" reading_unit=% recorded_number=62.3
molecule="C=CCOc1cc(O)c2c(c1)OC(c1ccc(O)cc1)CC2=O (configuration not stated)" reading_unit=% recorded_number=84
molecule="O=C(Oc1cc(O)c2c(c1)OC(c1ccc(O)cc1)CC2=O)c1cccs1 (configuration not stated)" reading_unit=% recorded_number=83.6
molecule="CC(C)C(=O)Oc1cc(O)c2c(c1)OC(c1ccc(O)cc1)CC2=O (configuration not stated)" reading_unit=% recorded_number=42.1
molecule="O=C1CC(c2ccc(O)cc2)Oc2cc(O)cc(O)c21 (racemic)" reading_unit=% recorded_number=14.9
molecule="Cc1ccccc1C(=O)Oc1cc(O)c2c(c1)OC(c1ccc(O)cc1)CC2=O (configuration not stated)" reading_unit=% recorded_number=48.9

-- ask Provide inhibition, system Cyclin-dependent kinase 2/cyclin E1 (Homo sapiens) (UniProt P24864+P24941), entry O=C(Oc1ccccc1)Oc1cc(O)c2c(c1)OC(c1ccc(O)cc1)CC2=O (configuration not stated)
-- reply 42
